# test_target: T1, EsCas13d, nuclease-dead (Eubacterium siraeum, UniProt B0MS50, R295A;H300A;R849A;H854A)
# T1 sequence: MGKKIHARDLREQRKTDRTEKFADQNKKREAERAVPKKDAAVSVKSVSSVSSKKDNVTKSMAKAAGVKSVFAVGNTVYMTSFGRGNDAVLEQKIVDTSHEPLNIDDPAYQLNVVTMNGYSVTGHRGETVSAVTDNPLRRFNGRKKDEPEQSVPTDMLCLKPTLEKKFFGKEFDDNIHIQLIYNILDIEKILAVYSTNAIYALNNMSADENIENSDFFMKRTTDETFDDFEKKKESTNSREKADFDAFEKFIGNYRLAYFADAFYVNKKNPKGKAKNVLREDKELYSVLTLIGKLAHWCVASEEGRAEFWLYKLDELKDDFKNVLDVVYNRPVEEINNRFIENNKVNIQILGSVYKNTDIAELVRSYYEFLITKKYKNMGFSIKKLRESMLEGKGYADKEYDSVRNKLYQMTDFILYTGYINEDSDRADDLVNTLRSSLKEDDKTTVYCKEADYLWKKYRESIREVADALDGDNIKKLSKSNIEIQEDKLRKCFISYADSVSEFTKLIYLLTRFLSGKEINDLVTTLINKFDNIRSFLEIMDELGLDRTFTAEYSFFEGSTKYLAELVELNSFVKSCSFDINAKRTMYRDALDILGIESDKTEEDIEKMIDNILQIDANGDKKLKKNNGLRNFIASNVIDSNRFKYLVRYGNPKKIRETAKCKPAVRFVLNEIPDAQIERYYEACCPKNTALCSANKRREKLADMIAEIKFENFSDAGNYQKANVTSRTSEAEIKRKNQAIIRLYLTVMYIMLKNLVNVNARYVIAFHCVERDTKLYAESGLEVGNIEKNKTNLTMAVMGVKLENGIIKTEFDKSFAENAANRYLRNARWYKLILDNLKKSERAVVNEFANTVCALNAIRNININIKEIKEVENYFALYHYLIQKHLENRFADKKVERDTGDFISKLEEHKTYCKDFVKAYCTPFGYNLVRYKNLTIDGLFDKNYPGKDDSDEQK
# experiment_summary: crRNA (strand 1, pre-loaded); Mg2+; 40 mM Tris-HCl pH 7.5, 150 mM NaCl, 6 mM MgCl2, 1 mM DTT, 0.1% Tween-20, 0.2 mg/ml BSA; 25 C; 10 min per concentration, then washed
# measurement_context: tags: His6-TwinStrep-SUMO cleaved; N-terminal SNAP kept (SNAP-Surface 488); label: 3' end held by stalled T7 RNA polymerase
Below is a list of entries, each paired with its recorded pKd value.
Please express pKd as -log10 of the molar concentration.

target 1 insA 3' of 13,insA 3' of 10 (mixed) RNA 1: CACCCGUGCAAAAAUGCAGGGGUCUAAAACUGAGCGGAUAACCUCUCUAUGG RNA 2: GGGAAUGGAUCCACAUCUACGAAUUCGUACCAUAGAGAGAGUUAAUCCGCUCACCGAGAUCGGAAGAGCACACGU; 8.37
target 1 insC 3' of 11,insA 3' of 11 (mixed) RNA 1: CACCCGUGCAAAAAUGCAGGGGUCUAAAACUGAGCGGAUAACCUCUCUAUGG RNA 2: GGGAAUGGAUCCACAUCUACGAAUUCGUACCAUAGAGAGGUCAUAUCCGCUCACCGAGAUCGGAAGAGCACACGU; 7.67
target 1 A14U,A16C (mixed) RNA 1: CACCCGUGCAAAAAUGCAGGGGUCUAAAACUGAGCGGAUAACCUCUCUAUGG RNA 2: GGGAAUGGAUCCACAUCUACGAAUUCGUACCAUAGCGUGGUUAUCCGCUCACCGAGAUCGGAAGAGCACACGU; 7.00
target 1 MT 5'PFS GUC 3'PFS AGA (mixed) RNA 1: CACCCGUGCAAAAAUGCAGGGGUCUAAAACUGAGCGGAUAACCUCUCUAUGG RNA 2: GGGAAUGGAUCCACAUCUACGAAUUCGUCCCAUAGAGAGGUUAUCCGCUCAAGAAGAUCGGAAGAGCACACGU; 7.71

Problem: Which pKd reading was recorded for the binder target 3 U2A,G3U (mixed) RNA 1: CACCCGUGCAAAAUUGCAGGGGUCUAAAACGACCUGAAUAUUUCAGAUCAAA RNA 2: GGGAAUGGAUCCACAUCUACGAAUUCGUUUUUGAUCUGAAAUAUUCAGUACUGCAGAUCGGAAGAGCACACGU ?
Result: 7.17

Problem: Please look up its pKd: target 1 U8G,A14G (mixed) RNA 1: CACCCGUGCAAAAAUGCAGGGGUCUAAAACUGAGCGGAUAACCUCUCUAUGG RNA 2: GGGAAUGGAUCCACAUCUACGAAUUCGUACCAUAGAGGGGUUAGCCGCUCACCGAGAUCGGAAGAGCACACGU
Result: 7.64

Problem: Look at this binder and give its reported pKd. target 1 MT 5'PFS GGA 3'PFS UGU (mixed) RNA 1: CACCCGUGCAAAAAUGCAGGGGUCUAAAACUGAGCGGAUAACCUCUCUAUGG RNA 2: GGGAAUGGAUCCACAUCUACGAAUUCGGACCAUAGAGAGGUUAUCCGCUCAUGUAGAUCGGAAGAGCACACGU
Result: 7.32

Sourced from paper PMC10786891
